Values were extracted from patent US20230233569A1.

Provide the reported pIC50 of each item.
target: KRAS G13C (Homo sapiens, UniProt P01116+P62937, G13C); test: Disruption of BRAF RBD interaction with Ras (FRET / MOA assay, with Cyclophilin A); type: biochemical; conditions: read-out: KRAS G13C FRET data, IC50
Sequence (P01116 1-169 isoform P01116-2 G13C): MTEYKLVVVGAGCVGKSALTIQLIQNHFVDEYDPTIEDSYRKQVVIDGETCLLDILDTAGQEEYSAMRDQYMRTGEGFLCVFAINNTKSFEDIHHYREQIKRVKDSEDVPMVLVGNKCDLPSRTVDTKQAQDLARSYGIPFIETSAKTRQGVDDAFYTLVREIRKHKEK
Sequence (P62937 whole entry): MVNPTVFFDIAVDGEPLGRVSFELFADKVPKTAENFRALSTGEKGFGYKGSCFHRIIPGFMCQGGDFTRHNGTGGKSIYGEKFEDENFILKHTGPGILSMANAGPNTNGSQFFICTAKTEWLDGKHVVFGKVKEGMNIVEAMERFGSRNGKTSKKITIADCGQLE
pIC50: −log10 of the molar value.

Hello, I am looking for reported pIC50 with KRAS G13C (Homo sapiens, UniProt P01116+P62937, G13C) for CCn1c(-c2cccnc2[C@H](C)OC)c2c3cc(ccc31)-c1csc(n1)C[C@H](NC(=O)[C@H](C(C)C)N(C)C(=O)[C@@H]1CCN(C)[C@@H]1c1ccccc1)C(=O)N1CCC[C@H](N1)C(=O)OCC(C)(C)C2 [Example A464] . Could you help?
5.00 to 6.00

Please tell me: pIC50 of C=C[C@@H]1C[C@]1(N)C(=O)N(C)[C@H](C(=O)N[C@H]1Cc2cc(O)cc(c2)-c2ccc3c(c2)c(c(-c2cccnc2[C@H](C)OC)n3CC)CC(C)(C)COC(=O)[C@@H]2CCCN(N2)C1=O)C(C)C [Example A149] , system KRAS G13C (Homo sapiens, UniProt P01116+P62937, G13C)?
7.00 to 8.00

Notebook: pull reported pIC50 for KRAS G13C (Homo sapiens, UniProt P01116+P62937, G13C), entry CCn1c(-c2cccnc2[C@H](C)OC)c2c3cc(ccc31)-c1csc(n1)C[C@H](NC(=O)[C@H](C(C)C)N(C)C(=O)N1CCN(C(=O)C3COC3)CC1)C(=O)N1CCC[C@H](N1)C(=O)OCC(C)(C)C2 (atropisomer, axis not shown) [Example A606]
6.00 to 7.00

# get_value(readout= pIC50, system= KRAS G13C (Homo sapiens, UniProt P01116+P62937, G13C)) for CCn1c(-c2cc(N3CCN(C)CC3)cnc2[C@H](C)OC)c2c3cc(ccc31)-c1csc(n1)C[C@H](NC(C)=O)C(=O)N1CCC[C@H](N1)C(=O)OCC(C)(C)C2 (atropisomer, axis not shown) [Example A340]
< 5.00
